The origin of these recorded values is PubChem BioAssay.

Assay: inhibition of 3D7 malaria parasite growth – strain 3D7 (AID 2306);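 further: 0% = DMSO wells and 100% = chloroquine plus artemisinin control wells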
Details: P. falciparum 3D7 erythrocytic growth, LDH absorbance, 72 h; at 2 µM; active compounds read high

{"columns": ["molecule", "growth inhibition / %"],
 "data": [
  ["O=C(Nc1ccccc1)N(Cc1ccccc1-c1cccc(CNCCc2ccccc2)c1)C1CCN(Cc2ccccc2)CC1", 100],
  ["Cc1cccc2[nH]c(=O)c([N+](=O)[O-])c(O)c12", 95],
  ["Cc1ccc2c(NN=Cc3cccc([N+](=O)[O-])c3)cc(C)nc2c1", 102],
  ["CCN1CCC(N(Cc2ccc(-c3ccc(C(F)(F)F)cc3)o2)C(=O)Cn2c(CCc3cccc(F)c3F)nc(=O)c3ccccc32)CC1", 91],
  ["COc1c(C2CCN(CCCCNC(=O)c3ccc(-c4ccc(C#N)cc4)cc3)CC2)cc(Cl)c2c1CCCC2", 93],
  ["CC[C@H](C)CNC(=O)c1cncc(-c2ccc(CNCCOc3ccccc3)cc2)c1", 90],
  ["CC(C)(C)c1ccc(C(=O)Nc2ccc(NC(=O)c3ccc([N+](=O)[O-])o3)cc2)cc1", 81],
  ["COc1cc(C2CCCCC2)c(OC)cc1CC1c2cc(O)c(Cl)cc2CCN1C (stereo not given)", 100],
  ["Cc1nn(-c2cccc(C(F)(F)F)c2)c2sc(C(=O)NC3CCN(C(C)C)CC3)cc12", 94],
  ["CCNc1cc(C(=O)N[C@@H](Cc2ccccc2)[C@H](O)CNC2(CC)CC2)cc(N2CCCCS2(=O)=O)c1", 97],
  ["COc1ccc(C=NNc2cc(C)nc3ccccc23)c2ccccc12", 99],
  ["Cc1nc2nc(N)nc(N)c2c(C)c1Cc1cccs1", 95],
  ["CN(C)CCNC(=O)c1ccc2c(c1)n(C1CCN(S(=O)(=O)c3ccc(-c4ccccc4)cc3)CC1)c(=O)n2CC1CCCCC1", 100],
  ["COc1ccc2ncc(F)c(CCN3CCC(NCc4cc(OC)c5c(c4)OCCO5)CC3)c2n1", 101],
  ["CCc1ccccc1N1CCN(CCCC(=O)c2ccc(NC(=O)c3ccc(Cl)cc3)cc2)CC1", 90]
]}
